Entries and their kon
molecular target: T1, human CD3e/g antigen (ACRO, catalog number CDG-H52W5) (human, UniProt P07766 23-126; P09693 23-116); test: SPR (Biacore 8K), antibody captured via anti-human Fc
T1 construct: Bought reagent used as the Biacore analyte; also called hCD3e/g

# Binder, Reading unit, kon
records = [
    ("hAb007-23 (antibody, V domains shown, Humanized; constant regions not specified) VH: QVQLVQSGAEVKKPGASVKVSCKASGSTFTDNYIHWVRQAPGQRLEWIGWIYPGSVNIKYNEKFKDRVTITADTSASTAYMELSSLRSEDTAVYYCARDISRYYFDYWGQGTTVTVSS VL: DIVMTQSPDSLAVSLGERATMNCKSSQSLLNSRTRKNYLAWYQQKPGQPPKLLIYWASTRESGVPDRFSGSGSGTDFTLTISSLQAEDVAVYYCKQSFILRTFGGGTKLEIK", "M⁻¹ s⁻¹", 439000),
    ("hAb001-29 (antibody, V domains shown, Humanized; constant regions not specified) VH: QVQLVQSGAEVKKPGASVKVSCKASGYSFTNYYMHWVKQAPGQRLEWIGWTYPGNNNIKYNEKFKGRATITADTSASTAYMELSSLRSEDTAVYYCARDGYGYYFFDYWGQGTLVTVSS VL: DIVMTQSPDSLAVSLGERATINCKSSQSLLNNRTRKNYLAWYQQKPGQPPKLLIYWASTRESGVPDRFSGSGSGTDFTLTISSLQAEDVAVYYCKQSYTLRTFGGGTKLEIK", "M⁻¹ s⁻¹", 316000),
]
